Values compiled from the supplement of paper PMC11208160.

- assay_details: recombinant barcode read abundance after kanamycin selection (control-corrected) (log10(CPM+1)); higher = more efficient recombination; sequences stand for … in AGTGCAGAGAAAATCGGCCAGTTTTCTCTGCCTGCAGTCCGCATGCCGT…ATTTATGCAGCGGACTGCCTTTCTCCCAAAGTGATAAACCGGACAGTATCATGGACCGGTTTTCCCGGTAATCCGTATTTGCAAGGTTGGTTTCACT; site = the 11-nt target
Consider the following sequences; for each one, report its recombinant barcode read abundance (log10).
Answer with a number only.

Query block: Entry GGGAGCCGTTGGGTTCTAACCTGTTGCTGAC [GGGAGCCCTCA_LTGcore_GT_RTGcore_GT] (site GGGAGCCCTCA) (LTG core: GT, RTG core: GT) : reported recombinant barcode read abundance (log10) = ?
Result block: 0.168

Query block: Entry TCGCGACTCTGGGTTCTAACCTGTTGCCGAG [TCGCGACCTCG_LTGcore_TC_RTGcore_CT] (site TCGCGACCTCG) (LTG core: TC, RTG core: CT) : reported recombinant barcode read abundance (log10) = ?
Result block: 0.0502

Query block: Entry CGCGCCCCCTGGGTTCTAACCTGTTGCGGGG [CGCGCCCCTCC_LTGcore_CC_RTGcore_CC] (site CGCGCCCCTCC) (LTG core: CC, RTG core: CC) : reported recombinant barcode read abundance (log10) = ?
Result block: 0.117

Query block: Entry GCGGGACAGTGGGTTCTAACCTGTTGCCTAG [GCGGGACCTAG_LTGcore_AG_RTGcore_CT] (site GCGGGACCTAG) (LTG core: AG, RTG core: CT) : reported recombinant barcode read abundance (log10) = ?
Result block: 0.28

Query block: Entry TGTATTCCTTGGGTTCTAACCTGTTGCCTTC [TGTATTCCTAG_LTGcore_CT_RTGcore_GA] (site TGTATTCCTAG) (LTG core: CT, RTG core: GA) : reported recombinant barcode read abundance (log10) = ?
Result block: 0.0942

Query block: Entry ATGCTTTGATGGGTTCTAACCTGTTGCCTTC [ATGCTTTCTAG_LTGcore_GA_RTGcore_GA] (site ATGCTTTCTAG) (LTG core: GA, RTG core: GA) : reported recombinant barcode read abundance (log10) = ?
Result block: 0.0368

Query block: Entry GCGCGACCCTGGGTTCTAACCTGTTGCTTAG [GCGCGACCTAA_LTGcore_CC_RTGcore_CT] (site GCGCGACCTAA) (LTG core: CC, RTG core: CT) : reported recombinant barcode read abundance (log10) = ?
Result block: 0.907

Query block: Entry AGGAGGTCCTGGGTTCTAACCTGTTGCCTAG [AGGAGGTCTAG_LTGcore_CC_RTGcore_CT] (site AGGAGGTCTAG) (LTG core: CC, RTG core: CT) : reported recombinant barcode read abundance (log10) = ?
Result block: 0.336

Query block: Entry CGGTCCCTGTGGGTTCTAACCTGTTGCCAAG [CGGTCCCCTTG_LTGcore_TG_RTGcore_CT] (site CGGTCCCCTTG) (LTG core: TG, RTG core: CT) : reported recombinant barcode read abundance (log10) = ?
Result block: 0.0242

Query block: Entry GAGGCCTAGTGGGTTCTAACCTGTTGCCAAG [GAGGCCTCTTG_LTGcore_AG_RTGcore_CT] (site GAGGCCTCTTG) (LTG core: AG, RTG core: CT) : reported recombinant barcode read abundance (log10) = ?
Result block: 0.106

Query block: Entry GGGAGCCCTTGGGTTCTAACCTGTTGCTGAC [GGGAGCCCTCA_LTGcore_CT_RTGcore_GT] (site GGGAGCCCTCA) (LTG core: CT, RTG core: GT) : reported recombinant barcode read abundance (log10) = ?
Result block: 1.06

Query block: Entry TTATAAAGATGGGTTCTAACCTGTTGCCTAG [TTATAAACTAG_LTGcore_GA_RTGcore_CT] (site TTATAAACTAG) (LTG core: GA, RTG core: CT) : reported recombinant barcode read abundance (log10) = ?
Result block: 0.0604

Query block: Entry AGTCTTACTTGGGTTCTAACCTGTTGCCATA [AGTCTTACTTG_LTGcore_CT_RTGcore_TA] (site AGTCTTACTTG) (LTG core: CT, RTG core: TA) : reported recombinant barcode read abundance (log10) = ?
Result block: 0.136

Query block: Entry GAGTCCTCTTGGGTTCTAACCTGTTGCCTGA [GAGTCCTCTAG_LTGcore_CT_RTGcore_TC] (site GAGTCCTCTAG) (LTG core: CT, RTG core: TC) : reported recombinant barcode read abundance (log10) = ?
Result block: 1.3

Query block: Entry CGCGCCCCGTGGGTTCTAACCTGTTGCGGAG [CGCGCCCCTCC_LTGcore_CG_RTGcore_CT] (site CGCGCCCCTCC) (LTG core: CG, RTG core: CT) : reported recombinant barcode read abundance (log10) = ?
Result block: 0.167

Query block: Entry GGACACCCTTGGGTTCTAACCTGTTGCCTGC [GGACACCCTAG_LTGcore_CT_RTGcore_GC] (site GGACACCCTAG) (LTG core: CT, RTG core: GC) : reported recombinant barcode read abundance (log10) = ?
Result block: 1.55

Query block: Entry GGGCGGACTTGGGTTCTAACCTGTTGCGGAG [GGGCGGACTCC_LTGcore_CT_RTGcore_CT] (site GGGCGGACTCC) (LTG core: CT, RTG core: CT) : reported recombinant barcode read abundance (log10) = ?
Result block: 2.08

Query block: Entry GAGGCCTCTTGGGTTCTAACCTGTTGCCACT [GAGGCCTCTTG_LTGcore_CT_RTGcore_AG] (site GAGGCCTCTTG) (LTG core: CT, RTG core: AG) : reported recombinant barcode read abundance (log10) = ?
Result block: 0.379

Query block: Entry GAGTCCACATGGGTTCTAACCTGTTGCGTTG [GAGTCCACTAC_LTGcore_CA_RTGcore_CA] (site GAGTCCACTAC) (LTG core: CA, RTG core: CA) : reported recombinant barcode read abundance (log10) = ?
Result block: 0.022

Query block: Entry AGTCTTACTTGGGTTCTAACCTGTTGCCAAG [AGTCTTACTTG_LTGcore_CT_RTGcore_CT] (site AGTCTTACTTG) (LTG core: CT, RTG core: CT) : reported recombinant barcode read abundance (log10) = ?
Result block: 0.0171

Query block: Entry AGGAGGTCTTGGGTTCTAACCTGTTGCCTCT [AGGAGGTCTAG_LTGcore_CT_RTGcore_AG] (site AGGAGGTCTAG) (LTG core: CT, RTG core: AG) : reported recombinant barcode read abundance (log10) = ?
Result block: 1.02

Query block: Entry GGGCGTGTATGGGTTCTAACCTGTTGCCTAG [GGGCGTGCTAG_LTGcore_TA_RTGcore_CT] (site GGGCGTGCTAG) (LTG core: TA, RTG core: CT) : reported recombinant barcode read abundance (log10) = ?
Result block: 0
